System: A549/ATCC NSCLC
Assay: NCI-60 one-dose screen, 48 h
Conditions: 10 µM unless noted
The panel holds about 83,000 compounds, 20% with a hit somewhere; the sample as a whole holds those more often. Calls of active or inactive are those of the source. Rule for the calls: active = growth percent below 10; inactive = the rest.
Outcomes you can answer with include only these: TRUE for active, FALSE for inactive

Recorded results for 3 compounds are shown here.
> print(dat)
                                   compound     study.system  group.label
1  CC(C)Sc1nc(NCCc2c[nH]c3ccccc23)c(C#N)c(-c2ccccc2)n1  A549/ATCC NSCLC        FALSE
2  CCOC(=O)C1=C(N)N(c2ccccc2)C2=C(C(=O)CC(C)(C)C2)C1c1ccc([N+](=O)[O-])cc1 (centres undefined)  A549/ATCC NSCLC        FALSE
3  COc1cc(OC)cc(-c2cc3ccc(N(C)C)cc3c(=O)[nH]2)c1  A549/ATCC NSCLC        FALSE

Exercise: Per the records of this test, what outcome belongs to CCCCSc1nc(Nc2ccc(C(C)=O)cc2)c(C#N)c(-c2ccc(OC)cc2)n1 ?
Solution: FALSE

Exercise: Assay outcome for NS(=O)(=O)c1ccc(NNC(=O)CCC(=O)c2ccccc2)cc1 : what was it?
Solution: FALSE

Exercise: Call for entry CCN(CC)c1ccnc(CNCCSC(c2ccccc2)(c2ccccc2)c2ccc(OC)cc2)c1 :
Solution: TRUE

Exercise: I'd appreciate the recorded outcome for O=C(C1=CNC(=S)NC1c1ccc(O)cc1)c1cc2ccccc2oc1=O (centres undefined) from this test.
Solution: FALSE

Exercise: What was the test verdict on CC(=O)Nc1ccc(-n2cnc3ccc(-c4ccc(O)cc4)cc32)cc1 ?
Solution: FALSE

Exercise: # fetch the recorded call for Cc1sc(C(NC(=O)OCCn2c([N+](=O)[O-])cnc2C)C(F)(F)Cl)nc1-c1ccc(OC(F)(F)F)cc1 (centres undefined) here
Solution: TRUE
